# Tested on: AMBEL (Ambrosia artemisifolia)
# protocol: Postemergence herbicidal evaluation
# Format: in vivo, L.
# test-settings: rate 0.0620 kg/ha
endpoint: Postemergence herbicidal rating, AMBEL
Please give only the number in your answer, with no unit.

Quick check: Postemergence herbicidal rating, AMBEL of C[C@@H]1O[C@@H]1c1nsc2ccc(-n3c(=O)cc(C(F)(F)F)n(C)c3=O)cc12 ?
9.0

Next: CCc1cc(-c2nsc3ccc(-n4c(=O)cc(C(F)(F)F)n(C)c4=O)cc23)c(CC)s1
6.0

Also CCOC(=O)C1CS[C@H](c2nsc3ccc(-n4c(=O)cc(C(F)(F)F)n(C)c4=O)cc23)N1 (stereo partly shown) , if possible.
9.0

Same thing, different molecule: Cn1c(C(F)(F)F)cc(=O)n(-c2ccc3snc(C4SCCN4C(=O)c4ccccc4)c3c2)c1=O (stereo not shown)
9.0
